- TGT: Prothrombin (Homo sapiens, UniProt P00734)
- PROTOCOL_SUMMARY: Inhibition of human thrombin preincubated for 10 mins using Ac-FVR-AMC as substrate by […] assay
- CONDITION: read-out: IC50
METRIC_NAME: IC50 (nM)

>>> print(df.to_string())
                                   compound  metric_name  quantitative_result
0  Cn1c(CNc2ccc(C(=N)N)cc2)nc2cc(C(=O)N(CCC(=O)O)c3ccccc3C(F)(F)F)ccc21         IC50                 4.96

(P) Cn1c(CNc2ccc(C(=N)N)cc2)nc2cc(C(=O)N(CCC(=O)O)c3ccc(F)c(F)c3)ccc21
(Q) CCCCCCOC(=O)NC(=N)c1ccc(NCc2nc3cc(C(=O)N(CCC(=O)OCC)c4ccccn4)ccc3n2C)cc1 [DABIGATRAN ETEXILATE]
Input line: // task: argmin of IC50 over [ P , Q ] To answer, give the label that identifies your chosen option.
Output line: Q
(Q: 2.61 nM, P: 3.95 nM)

###

- TGT: Prothrombin (Homo sapiens)
- PROTOCOL_SUMMARY: Inhibition of thrombin (unknown origin)
METRIC_NAME: IC50 (nM)

Answered cases to consult:
In [3]: df
Out[3]:
                         compound_structure                         tgt  quantitative_result
0  CCn1c(CNc2ccc(C(=N)N)cc2)nc2cc(C(=O)N(CCC(=O)O)c3ccccc3F)ccc21  Prothrombin (Homo sapiens)                 3.55
1  CCn1c(CNc2ccc(C(=N)N)cc2F)nc2cc(C(=O)N(CCC(=O)O)c3ccc(F)c(Cl)c3)ccc21  Prothrombin (Homo sapiens)                 2.04
2  CCn1c(CNc2ccc(C(=N)N)cc2)nc2cc(C(=O)N(CCC(=O)O)c3cccc(F)c3)ccc21  Prothrombin (Homo sapiens)                 7.41
3  CC(C)n1c(CNc2ccc(C(=N)N)cc2F)nc2cc(C(=O)N(CCC(=O)O)c3ccc(F)c(Cl)c3)ccc21  Prothrombin (Homo sapiens)                 17.4
4  CCn1c(CNc2ccc(C(=N)N)cc2)nc2cc(C(=O)N(CCC(=O)O)c3ccc(C(F)(F)F)cc3)ccc21  Prothrombin (Homo sapiens)                  200
5  N=C(N)c1ccc(NCc2nc3cc(C(=O)N(CCC(=O)O)c4ccc(F)c(Cl)c4)ccc3n2C2CC2)cc1  Prothrombin (Homo sapiens)                 27.5

(1) CCn1c(CNc2ccc(C(=N)N)cc2)nc2cc(C(=O)N(CCC(=O)O)c3cc(F)cc(F)c3)ccc21
(2) CCn1c(CNc2ccc(C(=N)N)cc2)nc2cc(C(=O)N(CCC(=O)O)c3ccc(OC(F)(F)F)cc3)ccc21
Input line: Field: entry with larger IC50 (options 1 / 2 ). To answer, give the label that identifies your chosen option.
Output line: 2

###

- TGT: Prothrombin (Homo sapiens, UniProt P00734)
- PROTOCOL_SUMMARY: Inhibition of thrombin (unknown origin)
METRIC_NAME: IC50 (µM)

                         compound_structure  quantitative_result
0  N=C(N)c1ccc(NCc2nc3cc(C(=O)N(CCC(=O)O)c4ccc(F)c(Cl)c4)ccc3n2C2CC2)c(F)c1               0.0269
1  CCCCCn1c(CNc2ccc(C(=N)N)cc2F)nc2cc(C(=O)N(CCC(=O)O)c3ccc(F)c(Cl)c3)ccc21                0.174
2  Cn1c(CNc2ccc(C(=N)N)cc2)nc2cc(C(=O)N(CCC(=O)O)c3cccc(C(F)(F)F)c3)ccc21               0.0123
3  Cc1ccnc(N(CCC(=O)O)C(=O)c2ccc3c(c2)nc(CNc2ccc(C(=N)N)cc2F)n3C)c1                0.024
4  CC(C)n1c(CNc2ccc(C(=N)N)cc2)nc2cc(C(=O)N(CCC(=O)O)c3ccc(F)c(Cl)c3)ccc21               0.0186
5  CCn1c(CNc2ccc(C(=N)N)cc2)nc2cc(C(=O)N(CCC(=O)O)c3ccc(F)c(Cl)c3)ccc21              0.00891
6  Cn1c(CNc2ccc(C(=N)N)cc2)nc2cc(C(=O)N(CCC(=O)O)c3ccc(F)c(Cl)c3)ccc21              0.00832
7  Cn1c(CNc2ccc(C(=N)N)cc2)nc2cc(C(=O)N(CCC(=O)O)c3cccc(F)c3)ccc21              0.00537

(a) CCCCCn1c(CNc2ccc(C(=N)N)cc2)nc2cc(C(=O)N(CCC(=O)O)c3ccc(F)c(Cl)c3)ccc21
(b) CCCn1c(CNc2ccc(C(=N)N)cc2)nc2cc(C(=O)N(CCC(=O)O)c3ccc(F)c(Cl)c3)ccc21
Input line: Field: entry with larger IC50 (options a / b ). To answer, give the label that identifies your chosen option.
Output line: a

(I) CCCCn1c(CNc2ccc(C(=N)N)cc2F)nc2cc(C(=O)N(CCC(=O)O)c3ccc(F)c(Cl)c3)ccc21
(II) Cn1c(CNc2ccc(C(=N)N)cc2)nc2cc(C(=O)N(CCC(=O)O)c3cc(F)cc(F)c3)ccc21
Input line: Field: entry with larger IC50 (options I / II ). To answer, give the label that identifies your chosen option.
Output line: I

(I) CCn1c(CNc2ccc(C(=N)N)cc2F)nc2cc(C(=O)N(CCC(=O)O)c3cc(C)ccn3)ccc21
(II) CCCn1c(CNc2ccc(C(=N)N)cc2F)nc2cc(C(=O)N(CCC(=O)O)c3ccc(F)c(Cl)c3)ccc21
Input line: Field: entry with larger IC50 (options I / II ). To answer, give the label that identifies your chosen option.
Output line: II

(1) CCn1c(CNc2ccc(C(=N)N)cc2)nc2cc(C(=O)N(CCC(=O)O)c3ccc(F)c(F)c3)ccc21
(2) CCn1c(CNc2ccc(C(=N)N)cc2)nc2cc(C(=O)N(CCC(=O)O)c3cccc(C(F)(F)F)c3)ccc21
Input line: Field: entry with larger IC50 (options 1 / 2 ). To answer, give the label that identifies your chosen option.
Output line: 2
(2: 0.0263 µM, 1: 0.00955 µM)
